- assay_remarks: activity coefficient (dimensionless); of the first substance listed, at infinite dilution; xn = mol fraction of the nth substance listed
- applied_conditions: 333.15 K; Liquid; dilutor; x1 = 0
attribute_measured: activity coefficient

In [3]: df
Out[3]:
                                   molecule  recorded_number
0  C1CCCC1 [cyclopentane] + CCCCCC[n+]1ccn(C)c1.O=S(=O)([N-]S(=O)(=O)C(F)(F)F)C(F)(F)F             3.26
1  c1ccccc1 [benzene] + CCCC[N+]1(C)CCCC1.O=S(=O)([N-]S(=O)(=O)C(F)(F)F)C(F)(F)F             0.89
2  CCCCCC [hexane] + CCCCCC[n+]1ccn(C)c1.O=S(=O)([N-]S(=O)(=O)C(F)(F)F)C(F)(F)F             6.55
3  CCCCC [pentane] + CCCC[N+]1(C)CCCC1.O=S(=O)([N-]S(=O)(=O)C(F)(F)F)C(F)(F)F             8.29
